Test: wn = mass fraction of the nth substance listed
Settings: 308.15 K; 101 kPa; Liquid; Falling or rolling sphere viscometry; w1 = 0.2
measuredParameter: viscosity (mPa·s)

>>> df
                                   compound  measuredparameter  recordedvalue
0       NCCNCCN [di(2-aminoethyl)amine] + O          viscosity          1.751
1  CNCCCN [N-methyl-1,3-diaminopropane] + O          viscosity          1.731
2  CN(C)CCCN(C)C [N,N,N',N'-tetramethyl-1,3-propanediamine] + O          viscosity          1.985
3  CN(C)CCN(C)C [N,N,N',N'-tetramethyl-1,2-diaminoethane] + O          viscosity          1.983

----------
Experiment: wn = mass fraction of the nth substance listed
Conditions: 303.15 K; 101 kPa; Liquid; Falling or rolling sphere viscometry; w1 = 0.3
Reported viscosity values for the following molecules.
measuredParameter: viscosity (mPa·s)

>>> df
                                   molecule  unitspec  recordedvalue
0       NCCNCCN [di(2-aminoethyl)amine] + O     mPa·s          3.572
1  CN(C)CCN(C)C [N,N,N',N'-tetramethyl-1,2-diaminoethane] + O     mPa·s          3.963
2  CNCCCN [N-methyl-1,3-diaminopropane] + O     mPa·s           3.41
3  CN(C)CCCN(C)C [N,N,N',N'-tetramethyl-1,3-propanediamine] + O     mPa·s          3.923

----------
Assay: wn = mass fraction of the nth substance listed
Conditions: 308.15 K; 101 kPa; Liquid; Falling or rolling sphere viscometry; w1 = 0.3
Below: a set of entries, each annotated with reported viscosity.
measuredParameter: viscosity (mPa·s)

                                   molecule  recordedvalue
0  CNCCCN [N-methyl-1,3-diaminopropane] + O          2.823
1  CN(C)CCN(C)C [N,N,N',N'-tetramethyl-1,2-diaminoethane] + O          3.243
2       NCCNCCN [di(2-aminoethyl)amine] + O          3.015
3  CN(C)CCCN(C)C [N,N,N',N'-tetramethyl-1,3-propanediamine] + O          3.192

----------
Assay: wn = mass fraction of the nth substance listed
Conditions: 303.15 K; 101 kPa; Liquid; Taylor dispersion method; w1 = 0.4
measuredParameter: binary diffusion coefficient (m2/s)

                                   molecule             measuredparameter  unitspec  recordedvalue
0       NCCNCCN [di(2-aminoethyl)amine] + O  binary diffusion coefficient      m2/s       5.57e-10
1  CNCCCN [N-methyl-1,3-diaminopropane] + O  binary diffusion coefficient      m2/s       6.08e-10
2  CN(C)CCCN(C)C [N,N,N',N'-tetramethyl-1,3-propanediamine] + O  binary diffusion coefficient      m2/s       2.56e-10
3  CN(C)CCN(C)C [N,N,N',N'-tetramethyl-1,2-diaminoethane] + O  binary diffusion coefficient      m2/s       3.12e-10

----------
Conditions: 303.15 K; 101 kPa; Liquid; Vibrating tube method
measuredParameter: mass density (kg/m3)

>>> print(df.to_string())
   smilesrepresentation  measuredparameter  recordedvalue
0          CN(C)CCN(C)C       mass density          767.3
1               NCCNCCN       mass density          942.1
2                CNCCCN       mass density          849.1
3         CN(C)CCCN(C)C       mass density          774.8
